test: Induction of nitric oxide release at 0.1 mM after 5 hrs in phosphate buffer at pH 7.4 by Griess assay; type: physicochemical; details: pH 7.4, 5 h, 100 µM
Param threshold (0.7 mol/mol) applies to Activity; output YES when value >= threshold, NO when value < threshold.

Take a look at these entries with their results.
Compound | Discrete label
CC(O[N+](=O)[O-])C(=O)Nc1ccc(C(=O)/C=C/c2ccco2)cc1 (stereo unspecified) | NO
COc1ccc(/C=C/C(=O)c2ccc(NC(=O)C(C)O[N+](=O)[O-])cc2)cc1 (stereo unspecified) | NO
CC(O[N+](=O)[O-])C(=O)Nc1ccc(C(=O)/C=C/c2ccc(Cl)cc2)cc1 (stereo unspecified) | NO
O=C(CO[N+](=O)[O-])Nc1ccc(C(=O)/C=C/c2ccco2)cc1 | NO
O=C(CO[N+](=O)[O-])Nc1ccc(C(=O)/C=C/c2ccc(Cl)cc2)cc1 | YES

Please check the record O=C(CO[N+](=O)[O-])Nc1ccc(C(=O)/C=C/c2ccc3c(c2)OCO3)cc1 and state if its Activity is at or above 0.7 mol/mol.
YES

Please check the record COc1ccc(/C=C/C(=O)c2ccc(NC(=O)COCc3c(-c4ccccc4)no[n+]3[O-])cc2)cc1 and state if its Activity is at or above 0.7 mol/mol.
NO

Please check the record C/C(=N/O)c1ccc(OCC(=O)Nc2ccc(C(=O)/C=C/c3ccc4c(c3)OCO4)cc2)cc1 and state if its Activity is at or above 0.7 mol/mol.
NO

Please check the record CC(O[N+](=O)[O-])C(=O)Nc1ccc(C(=O)/C=C/c2ccc3c(c2)OCO3)cc1 (stereo unspecified) and state if its Activity is at or above 0.7 mol/mol.
NO

Please check the record C/C(=N/O)c1ccc(OCC(=O)Nc2ccc(C(=O)/C=C/c3ccco3)cc2)cc1 and state if its Activity is at or above 0.7 mol/mol.
NO

Please check the record COc1ccc(/C=C/C(=O)c2ccc(NC(=O)COc3ccc(/C(C)=N\O)cc3)cc2)cc1 and state if its Activity is at or above 0.7 mol/mol.
NO

Please check the record O=C(COCc1c(-c2ccccc2)no[n+]1[O-])Nc1ccc(C(=O)/C=C/c2ccco2)cc1 and state if its Activity is at or above 0.7 mol/mol.
NO

Please check the record C/C(=N/O)c1ccc(OCC(=O)Nc2ccc(C(=O)/C=C/c3ccc(Cl)cc3)cc2)cc1 and state if its Activity is at or above 0.7 mol/mol.
NO

Please check the record O=C(COCc1c(-c2ccccc2)no[n+]1[O-])Nc1ccc(C(=O)/C=C/c2ccc3c(c2)OCO3)cc1 and state if its Activity is at or above 0.7 mol/mol.
YES

Please check the record O=C(COCc1c(-c2ccccc2)no[n+]1[O-])Nc1ccc(C(=O)/C=C/c2ccc(Cl)cc2)cc1 and state if its Activity is at or above 0.7 mol/mol.
YES

* * *

test system: Rattus norvegicus; assay: Gastric toxicity in albino rat assessed as ulcer index at 100 mg/kg, po after 5 hrs; type: organism-based; parameters: dose 100 mg/kg, route oral; settings: in vivo
# UI values compiled below
Returns: the value as a bare number; no unit string appended.

Compound | UI
CC(O[N+](=O)[O-])C(=O)Nc1ccc(C(=O)/C=C/c2ccc3c(c2)OCO3)cc1 (stereo not given) | 4
CC(Br)C(=O)Nc1ccc(C(=O)/C=C/c2ccco2)cc1 (stereo not given) | 25.3
O=C(CBr)Nc1ccc(C(=O)/C=C/c2ccco2)cc1 | 25.8

Per the records, this compound ( COc1ccc(/C=C/C(=O)c2ccc(NC(=O)COc3ccc(/C(C)=N\O)cc3)cc2)cc1 ) has UI equal to 5

Per the records, this compound ( C/C(=N/O)c1ccc(OCC(=O)Nc2ccc(C(=O)/C=C/c3ccc(Cl)cc3)cc2)cc1 ) has UI equal to 2.2

Per the records, this compound ( COc1ccc(/C=C/C(=O)c2ccc(NC(=O)C(C)O[N+](=O)[O-])cc2)cc1 (stereo not given) ) has UI equal to 8

Per the records, this compound ( COc1ccc(/C=C/C(=O)c2ccc(NC(=O)CBr)cc2)cc1 ) has UI equal to 28

Per the records, this compound ( Nc1ccc(C(=O)/C=C/c2ccc(Cl)cc2)cc1 ) has UI equal to 18

Per the records, this compound ( O=C(COCc1c(-c2ccccc2)no[n+]1[O-])Nc1ccc(C(=O)/C=C/c2ccc(Cl)cc2)cc1 ) has UI equal to 1

Per the records, this compound ( COc1ccc(/C=C/C(=O)c2ccc(NC(=O)CO[N+](=O)[O-])cc2)cc1 ) has UI equal to 5.8
